Each item that follows carries a reported pIC50.
# System: SW480 (G12V) cells
# Test Description: Cell viability assay (CELLTITER-GLO), SW480 cells
# Type: cell-based
# Experimental Setup: Homo sapiens, 72 h, 3 days, CELLTITER-GLO luminescence, read-out: Inhibition of Cancerous Cells IC50 SW480 (G12V)
pIC50: −log10 of the molar value.

Prompt line: # get_value(readout= pIC50, system= SW480 (G12V) cells) for Cc1nn2c(N3CCN(CCO)CC3)cc(-c3cccc(C#CCCCCCCCOC(=O)CC45CC6CC(CC(C6)C4)C5)c3)nc2c1-c1ccccc1
Response line: < 5.00

Prompt line: # get_value(readout= pIC50, system= SW480 (G12V) cells) for Cc1nn2c(N3CCN(CCO)CC3)cc(-c3cccc(CCCCCCCCCOC(=O)CC45CC6CC(CC(C6)C4)C5)c3)nc2c1-c1ccccc1
Response line: < 5.00

# next compound below
Prompt line: # get_value(readout= pIC50, system= SW480 (G12V) cells) for Cc1nn2c(N3CCN(CCO)CC3)cc(-c3cccc(CCCCCCCCCNC(=O)CC45CC6CC(CC(C6)C4)C5)c3)nc2c1-c1ccccc1
Response line: < 5.00
